- Method summary: Acute toxicity (LD50), oral route
- Recorded conditions: in vivo, mouse
Readout label: LD50 (mg/kg)
Give the value in mg/kg but do not write mg/kg after it.

Name the recorded LD50 for `O=C(O)C=CC(=O)c1ccccc1` .
250

Name the recorded LD50 for `COc1ccccc1C(=O)/C=C/C(=O)O` .
370

The reported measurements were obtained from patent US4867737A.
